Please go through the items and note down their pKd.
Biological target: T1, monomeric OPG (monomeric fragment of OPG) (UniProt O08712 22-197)
T1 chain: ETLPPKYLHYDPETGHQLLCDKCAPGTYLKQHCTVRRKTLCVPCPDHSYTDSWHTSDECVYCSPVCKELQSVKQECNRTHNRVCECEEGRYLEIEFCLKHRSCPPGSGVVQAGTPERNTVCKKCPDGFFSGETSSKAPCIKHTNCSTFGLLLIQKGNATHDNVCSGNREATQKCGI
Experiment: yeast surface display titration
pKd: −log10 of the molar value.

Take a look at these entries with their results.
K194E (protein) MRRASRDYGKYLRSSEEMGSGPGVPHEGPLHPAPSAPAPAPPPAASRSMFLALLGLGLGQVVCSIALFLYFRAQMDPNRISEDSTHCFYRILRLHENADLQDSTLESEDTLPDSCRRMKQAFQGAVQKELQHIVGPQRFSGAPAMMEGSWLDVAQRGKPEAQPFAHLTINAASIPSGSHKVTLSSWYHDRGWAEISNMTLSNGKLRVNQDGFYYLYANICFRHHETSGSVPTDYLQLMVYVVKTSIKIPSSHNLMKGGSTKNWSGNSEFHFYSINVGGFFKLRAGEEISIQVSNPSLLDPDQDATYFGAFKVQDID: ~7.14
H270Y (protein) MRRASRDYGKYLRSSEEMGSGPGVPHEGPLHPAPSAPAPAPPPAASRSMFLALLGLGLGQVVCSIALFLYFRAQMDPNRISEDSTHCFYRILRLHENADLQDSTLESEDTLPDSCRRMKQAFQGAVQKELQHIVGPQRFSGAPAMMEGSWLDVAQRGKPEAQPFAHLTINAASIPSGSHKVTLSSWYHDRGWAKISNMTLSNGKLRVNQDGFYYLYANICFRHHETSGSVPTDYLQLMVYVVKTSIKIPSSHNLMKGGSTKNWSGNSEFYFYSINVGGFFKLRAGEEISIQVSNPSLLDPDQDATYFGAFKVQDID: ~6.56
F269Y (protein) MRRASRDYGKYLRSSEEMGSGPGVPHEGPLHPAPSAPAPAPPPAASRSMFLALLGLGLGQVVCSIALFLYFRAQMDPNRISEDSTHCFYRILRLHENADLQDSTLESEDTLPDSCRRMKQAFQGAVQKELQHIVGPQRFSGAPAMMEGSWLDVAQRGKPEAQPFAHLTINAASIPSGSHKVTLSSWYHDRGWAKISNMTLSNGKLRVNQDGFYYLYANICFRHHETSGSVPTDYLQLMVYVVKTSIKIPSSHNLMKGGSTKNWSGNSEYHFYSINVGGFFKLRAGEEISIQVSNPSLLDPDQDATYFGAFKVQDID: ~7.48

Specify measured pKd for WT-SM htRANKL (homotrimeric mouse RANKL with the solubility mutations C220S/I246E) (ligand, The format differs by assay; also called WT-SM RANKL; WT htRANKL) QPFAHLTINAASIPSGSHKVTLSSWYHDRGWAKISNMTLSNGKLRVNQDGFYYLYANISFRHHETSGSVPTDYLQLMVYVVKTSEKIPSSHNLMKGGSTKNWSGNSEFHFYSINVGGFFKLRAGEEISIQVSNPSLLDPDQDATYFGAFKVQDID . ~7.48
